Tested on: L1210
Assay: Antitumor activity against L1210 Leukemia in mice at a dose of 100 mg/kg expressed as percent of increase in life span after day 60s was determined.
Type: functional
Conditions: Mus musculus
Peptide text beside a SMILES is read from it. * marks the point of attachment. Carbamoyl(2-ClEt,NO) = O=NN(CCCl)C(=O)*; For = O=C*
This listing pairs molecules with measured ILS at 100 mg/kg.

MOLECULE	EXPERIMENTAL_VALUE
CC(C)[C@H](NC(=O)[C@@H]1CCCN1C(=O)[C@H](CCCCNC=O)NC(=O)[C@@H]1CCCN1C(=O)N(CCCl)N=O)C(N)=O ({Carbamoyl(2-ClEt,NO)}-PK(For)PV-NH2)	80%

Entry `CC(C)[C@H](NC(=O)[C@@H]1CCCN1C(=O)[C@H](CCCCNC=O)NC(=O)N(CCCl)N=O)C(N)=O` needs its ILS at 100 mg/kg filled in; supply it.
110%

Answer with reported ILS at 100 mg/kg of `CC(C)[C@H](NC(=O)[C@@H]1CCCN1C(=O)[C@H](CCCCNC(=O)N(CCCl)N=O)NC(=O)N(CCCl)N=O)C(N)=O`
380%

Note down ILS at 100 mg/kg recorded for NC(=O)C1CCCN1C(=O)N(CCCl)N=O (centres undefined)
420%

---

Experiment: Antitumor activity against L1210 Leukemia in mice expressed as 50% lethal dose was determined at a dose of 130 mg/kg
Format: ADME, organism-based
Design: dose 130 mg/kg
Conditions: mouse, in vivo
MEASURED_PARAMETER: LD50 (mg/kg)
Give the quantity in mg/kg, number only.

Give me measured LD50, please, for this compound: `CC(C)[C@H](NC(=O)[C@@H]1CCCN1C(=O)[C@H](CCCCN)NC(=O)N(CCCl)N=O)C(N)=O.Cl`
175

---

Assay: Antitumor activity against L1210 Leukemia in mice expressed as 50% lethal dose was determined at 200 mg/kg
Format: ADME, organism-based
Parameters: dose 200 mg/kg
Conditions: mouse, in vivo
Peptide text beside a SMILES is read from it. * marks the point of attachment. Carbamoyl(2-ClEt,NO) = O=NN(CCCl)C(=O)*; Boc = CC(C)(C)OC(=O)*; For = O=C*
MEASURED_PARAMETER: LD50

Example compounds with recorded LD50:
COMPOUND	LD50
CC(C)[C@H](NC(=O)[C@@H]1CCCN1C(=O)[C@H](CCCCNC=O)NC(=O)[C@@H]1CCCN1C(=O)N(CCCl)N=O)C(N)=O ({Carbamoyl(2-ClEt,NO)}-PK(For)PV-NH2)	250 mg/kg
CC(C)[C@H](NC(=O)[C@@H]1CCCN1C(=O)[C@H](CCCCNC(=O)N(CCCl)N=O)NC(=O)[C@@H]1CCCN1C(=O)N(CCCl)N=O)C(N)=O ({Carbamoyl(2-ClEt,NO)}-PK(Carbamoyl(2-ClEt,NO))PV-NH2)	220 mg/kg
CC(C)[C@H](NC(=O)[C@@H]1CCCN1C(=O)[C@H](CCCCNC=O)NC(=O)N(CCCl)N=O)C(N)=O	260 mg/kg

Could you please provide reported LD50 for CC(C)[C@H](NC(=O)[C@@H]1CCCN1C(=O)[C@H](CCCCNC(=O)OC(C)(C)C)NC(=O)[C@@H]1CCCN1C(=O)N(CCCl)N=O)C(N)=O ({Carbamoyl(2-ClEt,NO)}-PK(Boc)PV-NH2) ? Thanks!
300 mg/kg

---

System: L1210
Experiment: Antitumor activity against L1210 Leukemia in mice at a dose of 100 mg/kg was determined.
Format: functional, Mus musculus
Peptide text beside a SMILES is read from it. * marks the point of attachment. Carbamoyl(2-ClEt,NO) = O=NN(CCCl)C(=O)*; Boc = CC(C)(C)OC(=O)*; For = O=C*
MEASURED_PARAMETER: MED (mmol/kg)
Field: numeric (mmol/kg). Do not append units.

# annotated cases, reported MED shown
COMPOUND	EXPERIMENTAL_VALUE
CC(C)[C@H](NC(=O)[C@@H]1CCCN1C(=O)[C@H](CCCCNC=O)NC(=O)N(CCCl)N=O)C(N)=O	0.2
NC(=O)C1CCCN1C(=O)N(CCCl)N=O (stereo not drawn)	0.403
CC(C)[C@H](NC(=O)[C@@H]1CCCN1C(=O)[C@H](CCCCNC=O)NC(=O)[C@@H]1CCCN1C(=O)N(CCCl)N=O)C(N)=O ({Carbamoyl(2-ClEt,NO)}-PK(For)PV-NH2)	0.16
CC(C)[C@H](NC(=O)[C@@H]1CCCN1C(=O)N(CCCl)N=O)C(N)=O	0.28
CC(C)[C@H](NC(=O)[C@@H]1CCCN1C(=O)[C@H](CCCCNC(=O)OC(C)(C)C)NC(=O)[C@@H]1CCCN1C(=O)N(CCCl)N=O)C(N)=O ({Carbamoyl(2-ClEt,NO)}-PK(Boc)PV-NH2)	0.15
CC(C)[C@H](NC(=O)[C@@H]1CCCN1C(=O)[C@@H](N)CCCCNC=O)C(N)=O.Cl (H-Lys(For)-Pro-Val-NH2)	0.24

Recall and state the measured MED for `CC(C)[C@H](NC(=O)[C@@H]1CCCN1C(=O)[C@H](CCCCNC(=O)N(CCCl)N=O)NC(=O)N(CCCl)N=O)C(N)=O` .
0.16

Give the reported value of MED for this record: CC(C)[C@H](NC(=O)[C@@H]1CCCN1C(=O)[C@H](CCCCNC(=O)N(CCCl)N=O)NC(=O)[C@@H]1CCCN1C(=O)N(CCCl)N=O)C(N)=O ({Carbamoyl(2-ClEt,NO)}-PK(Carbamoyl(2-ClEt,NO))PV-NH2)
0.14

Values were extracted from ChEMBL document CHEMBL1123865.
